Give measured IC50 for each item. Keep answers brief.
# Target or system: human recombinant HDAC6 (Homo sapiens, UniProt Q9UBN7)
# Sequence (Q9UBN7 1-1215): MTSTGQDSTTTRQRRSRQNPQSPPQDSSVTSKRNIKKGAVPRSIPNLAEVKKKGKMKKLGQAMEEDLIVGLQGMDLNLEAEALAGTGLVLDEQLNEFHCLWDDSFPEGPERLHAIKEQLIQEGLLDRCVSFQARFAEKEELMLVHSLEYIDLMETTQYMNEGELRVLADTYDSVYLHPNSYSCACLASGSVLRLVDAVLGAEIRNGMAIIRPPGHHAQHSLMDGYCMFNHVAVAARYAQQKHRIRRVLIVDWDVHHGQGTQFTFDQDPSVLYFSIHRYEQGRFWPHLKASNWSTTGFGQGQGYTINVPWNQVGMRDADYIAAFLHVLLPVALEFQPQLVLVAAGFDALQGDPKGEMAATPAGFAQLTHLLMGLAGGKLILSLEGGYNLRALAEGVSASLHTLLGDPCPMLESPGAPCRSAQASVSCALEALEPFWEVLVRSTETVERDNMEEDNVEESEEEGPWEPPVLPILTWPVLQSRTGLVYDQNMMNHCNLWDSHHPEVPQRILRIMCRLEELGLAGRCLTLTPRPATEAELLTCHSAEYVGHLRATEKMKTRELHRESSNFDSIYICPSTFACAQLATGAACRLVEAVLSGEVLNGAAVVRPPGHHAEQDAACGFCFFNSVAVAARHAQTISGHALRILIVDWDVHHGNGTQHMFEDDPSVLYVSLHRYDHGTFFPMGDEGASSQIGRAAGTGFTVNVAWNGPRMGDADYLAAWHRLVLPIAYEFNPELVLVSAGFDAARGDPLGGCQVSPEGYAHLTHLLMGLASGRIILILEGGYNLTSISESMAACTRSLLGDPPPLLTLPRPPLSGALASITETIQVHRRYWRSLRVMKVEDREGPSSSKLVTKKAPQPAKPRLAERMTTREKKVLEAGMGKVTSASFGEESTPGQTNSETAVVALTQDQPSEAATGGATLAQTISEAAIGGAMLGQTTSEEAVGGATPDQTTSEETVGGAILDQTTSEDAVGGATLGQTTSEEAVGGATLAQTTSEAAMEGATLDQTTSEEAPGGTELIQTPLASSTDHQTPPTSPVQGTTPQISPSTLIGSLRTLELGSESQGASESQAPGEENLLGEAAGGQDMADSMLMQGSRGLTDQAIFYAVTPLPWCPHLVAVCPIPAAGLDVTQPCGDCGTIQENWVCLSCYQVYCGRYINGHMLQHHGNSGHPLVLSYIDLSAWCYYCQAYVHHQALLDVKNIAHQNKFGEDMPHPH
# Assay details: HDAC6 enzyme activity inhibition assay (in vitro, fluorimetric)
# Test conditions: human recombinant HDAC6, fluorimetric kit, same protocol as HDAC1
Give bare numbers, in nM.

Before answering, review these 8 worked examples.
[in] Record request: IC50 value, item C[C@@H]1CN(Cc2ccc3cc(C(=O)NO)[nH]c3c2)C[C@H](C)N1Cc1ccccc1 [Compound 573]
[out] 1440

[in] Would you mind doing C[C@@H]1CN(C(=O)c2ccccc2Cl)C[C@H](C)N1Cc1ccc(C(=O)NO)cc1 [Compound 108] as well?
[out] 166

[in] Would you mind doing C[C@@H]1CN(Cc2ccc(C(=O)NO)cc2)C[C@H](C)N1Cc1ccc(CN2CCOCC2)cc1 [Compound 376] as well?
[out] 84

[in] Would you mind doing CCN1CCN(Cc2cccc(CN3[C@H](C)CN(Cc4ccc(C(=O)NO)cc4)C[C@@H]3C)c2)CC1 [Compound 429] as well?
[out] 100

[in] Would you mind doing CC(=O)N1CCN(Cc2cccc(CN3[C@H](C)CN(Cc4ccc(C(=O)NO)cc4)C[C@@H]3C)c2)CC1 [Compound 431] as well?
[out] 22

[in] Would you mind doing C[C@@H]1CN(Cc2ccc(C(=O)NO)cc2)C[C@H](C)N1C(=O)c1ccccc1Cl [Compound 120] as well?
[out] 18

[in] Would you mind doing C[C@@H]1CN(Cc2ccc(C(=O)NO)cc2)C[C@H](C)N1Cc1ccncc1 [Compound 266] as well?
[out] 282

[in] Would you mind doing CC(CN(C)Cc1ccccc1)NCc1cccc(CN2[C@H](C)CN(Cc3ccc(C(=O)NO)cc3)C[C@@H]2C)c1 (some centres unmarked) [Compound 456] as well?
[out] 144

Each molecule below has a recorded value; state its IC50.
1. C[C@@H]1CN(C(=O)c2cccc(-c3ccoc3)c2)C[C@H](C)N1Cc1ccc(C(=O)NO)cc1 [Compound 258]
2. CC(C)NC(=O)N1[C@H](C)CN(Cc2ccc(C(=O)NO)cc2)C[C@@H]1C [Compound 098]
3. C[C@@H]1CN(Cc2ccc(C(=O)NO)cc2)C[C@H](C)N1C(=O)Oc1ccccc1 [Compound 177]

[out]
258
75
31
